Reported SI (CC50/IC50) values, EBOV minigenome activity.
Give bare numbers.

# molecule, SI (CC50/IC50)
measured = [
    ("C[C@]12CC[C@H]3[C@@H](CC[C@]4(O)C[C@@H](O)CC[C@]34C=O)[C@@]1(O)CC[C@@H]2C1=CC(=O)OC1", 0.423),
]

Attention now turns to another entry.
Give the measured SI (CC50/IC50) of CC(=O)O[C@H]1C[C@H](O[C@H]2[C@@H](O)C[C@H](O[C@H]3[C@@H](O)C[C@H](O[C@H]4CC[C@@]5(C)[C@H](CC[C@@H]6[C@@H]5C[C@@H](O)[C@]5(C)[C@@H](C7=CC(=O)OC7)CC[C@]65O)C4)O[C@@H]3C)O[C@@H]2C)O[C@H](C)[C@H]1O[C@@H]1O[C@H](CO)[C@@H](O)[C@H](O)[C@H]1O [lanatoside C] . 0.694

###

Give measured CC50 for each item. Keep answers brief.
Tested on: HEK293T cells

# compound, CC50
rows = [
    ("Cc1ccc(C)c(OCCCC(C)(C)C(=O)O)c1 [gemfobrozil]", "> 50 µM"),
    ("CN(C)CCOC(c1ccccc1)c1ccccc1.Cn1c(=O)c2[nH]c(Cl)nc2n(C)c1=O [dramamine]", "> 50 µM"),
]

Attention now turns to another entry.
Give the measured CC50 of CO[C@H]1C=C[C@@]23c4cc5c(cc4CN(C[C@@H]2O)[C@H]3C1)OCO5 [crinamine] . > 50 µM

###

Give measured CC50 for each item. Keep answers brief.
test: in vitro
cond: human

# molecule, CC50
measured = [
    ("Nc1ncnc2c1ncn2[C@@H]1O[C@H](CO)[C@@H](O)[C@@H]1O", "> 50 µM"),
    ("C[C@@H]1C[C@@H]([C@H](O)CC2CC(=O)NC(=O)C2)C(=O)[C@@H](C)C1 [cycloheximide]", "> 50 µM"),
]

Attention now turns to another entry.
Give the measured CC50 of C[C@H]1O[C@@H](O[C@H]2[C@@H](O)C[C@H](O[C@H]3[C@@H](O)C[C@H](O[C@H]4CC[C@@]5(C)[C@H](CC[C@@H]6[C@@H]5CC[C@]5(C)[C@@H](C7=CC(=O)OC7)CC[C@]65O)C4)O[C@@H]3C)O[C@@H]2C)C[C@H](O)[C@@H]1O . 0.031 µM

###

test: in vitro
cond: human
Give measured CC50 for each item. Keep answers brief.

# compound, CC50
rows = [
    ("CC(=O)O[C@H]1C[C@H](O[C@H]2[C@@H](O)C[C@H](O[C@H]3[C@@H](O)C[C@H](O[C@H]4CC[C@@]5(C)[C@H](CC[C@@H]6[C@@H]5C[C@@H](O)[C@]5(C)[C@@H](C7=CC(=O)OC7)CC[C@]65O)C4)O[C@@H]3C)O[C@@H]2C)O[C@H](C)[C@H]1O[C@@H]1O[C@H](CO)[C@@H](O)[C@H](O)[C@H]1O [lanatoside C]", "0.177 µM"),
    ("C[C@@]12C(=O)OC(=O)[C@]1(C)[C@H]1CC[C@@H]2O1", "> 50 µM"),
    ("O=c1[nH]cc(F)c(=O)[nH]1", "> 50 µM"),
    ("CC(=O)O[C@@H]1C[C@H]2C(C)(C)C(=O)C=C[C@]2(C)[C@H]2CC[C@@]3(C)[C@H](c4ccoc4)OC(=O)[C@H]4O[C@]43[C@@]21C", "5.48 µM"),
]

Quick request: CC50 for each listed item, please.
1. COc1c(C)c2c(c(O)c1C/C=C(\C)CCC(=O)O)C(=O)OC2
2. CC[C@H]1CN2CCc3cc(OC)c(OC)cc3[C@@H]2C[C@@H]1C[C@H]1NCCc2cc(OC)c(OC)cc21

1: > 50 µM; 2: > 50 µM
